tested on: Salmonella enterica typhimurium; experiment: growth AUC normalised to DMSO control (fraction of control); higher = less growth inhibition, active = hit call of the paper; details: 20 µM
Structures can show the parent of a compound that is named as a salt.
The reader will find reported growth AUC normalised to DMSO control values listed item by item below.
Form rule: numeric answer, no unit written next to it.

{"molecule": "Cc1onc(-c2c(F)cccc2Cl)c1C(=O)N[C@@H]1C(=O)N2[C@@H]1SC(C)(C)[C@@H]2C(=O)O [Flucloxacillin sodium]", "growth AUC normalised to DMSO control": 0.993}
{"molecule": "CCCCOC(=O)c1ccc(O)cc1", "growth AUC normalised to DMSO control": 1.01}
{"molecule": "CC(C)(C)NC[C@H](O)COc1ccccc1C1CCCC1 [Penbutolol sulfate]", "growth AUC normalised to DMSO control": 1.01}
{"molecule": "CNCC[C@@H](Oc1ccccc1C)c1ccccc1 [Tomoxetine hydrochloride]", "growth AUC normalised to DMSO control": 1.01}

Shift focus to the following entry.
# input Report growth AUC normalised to DMSO control for C[C@@H](O[C@H]1OCCN(Cc2n[nH]c(=O)[nH]2)[C@H]1c1ccc(F)cc1)c1cc(C(F)(F)F)cc(C(F)(F)F)c1 [Aprepitant] tested on Salmonella enterica typhimurium.
# output 0.993
